Taken from patent US20240254222A1.

system under test: T1, Cyno Semaphorin3A-Sema Domain, TPP-19122 (cynomolgus (Macaca fascicularis), UniProt Q63548 21-569 (rat entry), limits assumed)
T1 construct: produced inhouse
T1 chain: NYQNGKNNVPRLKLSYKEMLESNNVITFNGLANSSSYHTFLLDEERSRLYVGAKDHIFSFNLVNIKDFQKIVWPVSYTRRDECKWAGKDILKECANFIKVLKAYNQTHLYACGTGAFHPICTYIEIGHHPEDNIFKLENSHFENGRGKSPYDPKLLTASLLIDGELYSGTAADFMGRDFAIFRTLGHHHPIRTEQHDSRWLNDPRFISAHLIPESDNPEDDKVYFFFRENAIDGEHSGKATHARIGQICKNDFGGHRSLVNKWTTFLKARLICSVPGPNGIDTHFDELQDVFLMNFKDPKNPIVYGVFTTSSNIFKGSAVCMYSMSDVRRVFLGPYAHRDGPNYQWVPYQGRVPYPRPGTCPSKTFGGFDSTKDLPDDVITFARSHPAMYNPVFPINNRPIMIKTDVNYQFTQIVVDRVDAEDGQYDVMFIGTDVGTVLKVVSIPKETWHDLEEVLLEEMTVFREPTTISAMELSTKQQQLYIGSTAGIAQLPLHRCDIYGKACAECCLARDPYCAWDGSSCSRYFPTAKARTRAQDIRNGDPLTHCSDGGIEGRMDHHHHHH
protocol description: SPR, captured antibody, Sema3A domain analyte
Protocol: To assess the binding kinetics and affinity of anti-Sema3A antibodies as well as their species cross-reactivity profile, binding assays were conducted using surface plasmon resonance (SPR). Binding assays were performed on a Biacore T200 instrument or on a Biacore 8K+ instrument (Cytiva) at 25° C. using assay buffer HBS P+, 300 mM NaCl, 0.75 mM CaCl₂, 2.5 mM MgCl₂, 1 mg/ml BSA, 0.05% NaN₃. […]
Please respond with reported Kd for every item in the list.
Give bare numbers, in nM.

Field: example entries. Status: answers known.
binder	Kd [nM]
TPP-15374 (antibody, human IgG1, lambda, V domains shown, human IgG1; also called IgG1, hit from panning; parental mAb) VH: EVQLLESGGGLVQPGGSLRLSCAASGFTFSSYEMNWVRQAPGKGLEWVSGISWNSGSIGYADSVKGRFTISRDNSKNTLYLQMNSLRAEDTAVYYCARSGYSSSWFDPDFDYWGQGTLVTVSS VL: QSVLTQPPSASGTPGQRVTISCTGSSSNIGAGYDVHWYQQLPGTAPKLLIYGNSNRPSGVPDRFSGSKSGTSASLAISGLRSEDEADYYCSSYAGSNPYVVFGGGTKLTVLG	46
TPP-30788 (antibody, human IgG1, kappa, V domains shown, prior art, WO 2020/225400; also called BI clone I; Böhringer (BI) Clone I) VH: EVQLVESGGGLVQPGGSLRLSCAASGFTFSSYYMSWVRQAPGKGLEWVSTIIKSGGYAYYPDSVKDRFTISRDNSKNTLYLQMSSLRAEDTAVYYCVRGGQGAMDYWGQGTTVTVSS VL: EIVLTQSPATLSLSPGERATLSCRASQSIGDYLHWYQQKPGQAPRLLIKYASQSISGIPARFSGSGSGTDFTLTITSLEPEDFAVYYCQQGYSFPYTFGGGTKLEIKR	0.078
TPP-17755 (antibody, human IgG1, lambda, V domains shown, also called Samsung; Samsung Prior Art F11) VH: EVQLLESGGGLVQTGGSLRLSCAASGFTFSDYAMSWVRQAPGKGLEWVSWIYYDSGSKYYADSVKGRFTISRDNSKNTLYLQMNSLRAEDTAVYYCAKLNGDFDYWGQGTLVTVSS VL: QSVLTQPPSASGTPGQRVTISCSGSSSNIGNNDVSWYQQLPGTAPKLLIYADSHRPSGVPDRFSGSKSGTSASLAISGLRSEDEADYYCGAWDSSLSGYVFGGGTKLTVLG	14

Next up:
[ask] Endpoint output: Kd of TPP-30790 (antibody, human IgG1, kappa, V domains shown, prior art, WO 2020/225400; also called BI clone III; Böhringer (BI) Clone III) VH: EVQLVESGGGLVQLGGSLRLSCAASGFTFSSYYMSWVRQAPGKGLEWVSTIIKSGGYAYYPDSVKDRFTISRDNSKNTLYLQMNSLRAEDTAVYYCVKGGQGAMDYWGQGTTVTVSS VL: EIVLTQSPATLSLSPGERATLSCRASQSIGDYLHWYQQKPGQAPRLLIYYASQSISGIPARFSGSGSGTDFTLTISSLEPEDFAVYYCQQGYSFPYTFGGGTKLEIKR . Value?
[reply] 0.077
